assay: Fab Tm by dynamic scanning fluorimetry (DSF); assay type: physicochemical; details: optimized antibodies
Observation type: Fab Tm (DSF, ° C.) (°C)
Return type: number; implicit unit °C.

### Prompt // Input: ADI-71755: anti-IL18-BP antibody, sequences in FIG. 2T (antibody, V domains shown) VH: QLQLQESGPGLVKPSETLSLTCTVSGGSISSPDYPWGWIRQPPGKGLEWIGSIFYSGNTYYNPSLKSRVTISVDTSKNQFSLKLSSVTAADTAVYYCARGPFRQVFDYWGQGTLVTVSS VL: DIQMTQSPSSVSASVGDRVTITCRASQGISSWLAWYQQKPGKAPKLLIYAASSLQSGVPSRFSGSGSGTDFTLTISSLQPEDFATYYCQQGWSFPYTFGGGTKVEIK . Output its Fab Tm (DSF, ° C.) only.
### Response 74.5
